Target: T1, Bdf1 bromodomain 1 (GST-tagged, WT) (Saccharomyces cerevisiae (strain ATCC …, UniProt P35817))
T1 chain: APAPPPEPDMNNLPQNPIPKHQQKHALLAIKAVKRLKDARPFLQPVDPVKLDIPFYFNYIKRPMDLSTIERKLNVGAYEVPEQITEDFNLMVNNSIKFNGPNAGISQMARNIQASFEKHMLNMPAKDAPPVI
Test: histone peptide array probed with recombinant GST-bromodomain, signal normalised to myc peptide control
Non-standard residues stand in square brackets, D forms with d. No end group written: not given here. Arg(Me2a) = CN(C)C(=N)NCCC[C@H](N)C(=O)O; pT = C[C@@H](OP(=O)(O)O)[C@H](N)C(=O)O; Me2a = asymmetric dimethyl (on Arg); Me2s = symmetric dimethyl (on Arg); pS = N[C@@H](COP(=O)(O)O)C(=O)O; Me2 = dimethyl (on Lys)
Field: label. Allowed values: criterion met (binding score < 0.004) or criterion not met (binding score >= 0.004).

ARTKQTARKSTGGKAPRKQ (A R T Kme1 Q T A Rme2a Kme2 S T G G K A P R K Q) : criterion not met
SGRGKGGKGLGKGGAKRHR (S G Rme2s G K G G Kac G L G K G G A K R H R) : criterion met
PRKQLATKAARK[pS]APATGG [H3 16-35] : criterion met

Q: Would you kindly verify if binding score of ARTK(Ac)QTAR(Me2a)K(Me2)STGGKAPRKQ is strictly less than 0.004?
Ans: criterion met

Q: Would you kindly verify if binding score of AR(Me2s)TK(Ac)QTAR(Me2s)K(Me)STGGKAPRKQ is strictly less than 0.004?
Ans: criterion met

Q: Would you kindly verify if binding score of A[Arg(Me2a)][pT]K(Me)QTARKSTGGKAPRKQ is strictly less than 0.004?
Ans: criterion not met

Q: Would you kindly verify if binding score of SGRGKGGKGLGKGGAKRHR (S G Rme2a G Kac G G Kac G L G Kac G G A K R H R) is strictly less than 0.004?
Ans: criterion not met
